# Measured target: Env of HIV-1 strain X1254_c3 (HIV-1)
# Run description: cell-based or functional assay
Measure: neutralization IC50

>>> reported_result("γ15κ11 (antibody, V domains shown) VH: QIHLVQSGTEVKKPGSSVTVSCKAYGVNTFGLYAVNWVRQAPGQSLEYIGQIWRWKSSASHHFRGRVIISAVDLTGSSPPISSLEIKNLTSDDTAVYFCTTASTYDKWSGLHHDGVMAFSSWGQGTLISVSA VL: DIQMTQSPSTLSASVGGTVRISCRASQSITGGWLAWYHQRPGKAPRLLIYRGSRLLGGVPSRFSGSAAGTDFTLTIANLQAEDFGTFYCQQYDTYPGTFGQGTKVEVKR")
"13.7 µg/mL"
>>> reported_result("γ23κ18 (antibody, V domains shown) VH: QIHLVQSGTEVKKPGSSVTVSCKAYGVNTFGLYAVNWVRQAPGQSLEYIGQIWRWKSSASHHFRGRVIISAVDLTGSSPPISSLEIKNLTSDDTAVYFCTTTSTSDYWSGLHHDGVMAFSSWGQGTLISVSA VL: DIQMTQSPSTLSASVGDTVRISCRASQSITGGWLAWYHQRPGKAPRLLIYRGSRLLGGVPSRFSGSAAGADFTLTIANLQAEDFGTFYCQQYDTYPGTFGQGTKVEVKR")
"0.545 µg/mL"
>>> reported_result("γ22κ3 (antibody, V domains shown) VH: QIHLVQSGTEVKKPGSSVTVSCKAYGVNTFGLYAVNWVRQAPGQSLEYIGQIWRWKSSASHHFRGRVLISAVDLTGPSPPISSLEIKNLTSDDTAVYFCTTTSTYDKWSGLHHDGVMAFSSWGQGTLISVSA VL: DIQMTQSPSTLSASIGDTVRISCRASQSITGNWLAWYHQRPGKAPRLLIYRGSRLLGGVPSRFSGSAAGTDFTLTIANLQAEDFGTFYCQQYDTYPGTFGQGTKVEVKR")
"> 15 µg/mL"
>>> reported_result("γ3κ18 (antibody, V domains shown) VH: QIHLVQSGTEVKKPGSSVTVSCKAYGVNTFGLYAVSWVRQAPGQRLEYIGQIRRWKSSASHHFRGRVTVSAVDPTGSSPPISSLEIRDLTTDDTAVYFCTTTSTSDYWSGLHNERGTAFSSWGQGTLISVSA VL: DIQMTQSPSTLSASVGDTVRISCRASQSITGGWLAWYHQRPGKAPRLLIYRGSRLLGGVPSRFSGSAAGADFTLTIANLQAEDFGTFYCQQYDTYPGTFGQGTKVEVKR")
"0.616 µg/mL"
>>> reported_result("γ52κ3 (antibody, V domains shown) VH: QIHLVQSGTEVKKPGSSVTVSCKAYGVNTFGLYAVNWVRQAPGQSLEYIGQIWRWKSSASHHFRGRVLISAVDLTGSSPPISSLEIKNLTSDDTAVYFCTTTSTYDRWSGLHHDGVMAFSSWGQGTLISVSA VL: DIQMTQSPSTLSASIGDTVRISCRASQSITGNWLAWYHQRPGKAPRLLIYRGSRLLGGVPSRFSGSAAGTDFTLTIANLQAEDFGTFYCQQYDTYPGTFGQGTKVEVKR")
"> 15 µg/mL"
